Target: Neu5Ac(a2-3)GalNAc
Experiment: glycan array binding signal (z-score within array); higher = stronger binding
Details: glycan notation: IUPAC condensed, linker removed
The full list was thinned out, with the strongest signals kept by preference.
Experimental readout: glycan array binding signal (z-score)
Give the value as a plain number.

Reported glycan array binding signal (z-score) of SEX4 (Arabidopsis thaliana), Q944A8 (protein) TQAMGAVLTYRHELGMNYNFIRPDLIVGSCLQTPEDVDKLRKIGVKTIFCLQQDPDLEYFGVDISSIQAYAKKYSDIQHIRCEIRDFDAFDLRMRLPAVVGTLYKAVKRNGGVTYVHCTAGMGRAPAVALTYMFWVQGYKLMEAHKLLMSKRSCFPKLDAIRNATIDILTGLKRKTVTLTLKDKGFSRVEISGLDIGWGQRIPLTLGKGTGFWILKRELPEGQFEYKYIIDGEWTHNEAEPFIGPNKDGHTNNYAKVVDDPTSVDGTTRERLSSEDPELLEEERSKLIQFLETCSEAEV : -0.529
